Measured Kd, listed per entry.
- TARGET OR SYSTEM: Serine/threonine-protein kinase 16 (Homo sapiens); also: in the data inactive means no Kd found up to 30 µM
- Sequence (O75716 whole entry): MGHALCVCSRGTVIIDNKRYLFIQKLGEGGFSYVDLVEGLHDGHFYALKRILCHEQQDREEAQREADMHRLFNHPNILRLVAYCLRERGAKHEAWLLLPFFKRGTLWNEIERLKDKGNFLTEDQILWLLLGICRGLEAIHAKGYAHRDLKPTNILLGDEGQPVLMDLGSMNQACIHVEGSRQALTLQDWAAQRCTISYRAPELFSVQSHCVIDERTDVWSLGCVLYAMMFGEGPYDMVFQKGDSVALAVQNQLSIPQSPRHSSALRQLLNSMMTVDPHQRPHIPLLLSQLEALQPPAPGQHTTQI
The source made the active and inactive calls.

Consider the reported Kd for these molecules:
- SMILES STRING: "CN1C/C=C/CCOc2cccc(c2)-c2ccnc(n2)Nc2cccc(c2)C1"
  Kd: "> 30 µM (inactive)"
- SMILES STRING: "Cc1nc2cc(-n3ncc(C(=O)c4cc5ccccc5[nH]4)c3N)ccc2[nH]1"
  Kd: "> 30 µM (inactive)"
- SMILES STRING: "C[C@H]1CNCCCN1S(=O)(=O)c1cccc2cncc(F)c12"
  Kd: "> 30 µM (inactive)"
- SMILES STRING: "CO[C@H]1C[C@@H]2CC[C@@H](C)[C@@](O)(O2)C(=O)C(=O)N2CCCC[C@H]2C(=O)O[C@H]([C@H](C)C[C@@H]2CC[C@@H](OP(C)(C)=O)[C@H](OC)C2)CC(=O)[C@H](C)/C=C(\\C)[C@@H](O)[C@@H](OC)C(=O)[C@H](C)C[C@H](C)/C=C/C=C/C=C/1C"
  Kd: "> 30 µM (inactive)"
- SMILES STRING: "O=C(Nc1c[nH]nc1-c1nc2cc(CN3CCOCC3)ccc2[nH]1)NC1CC1"
  Kd: "1.28 µM (active)"

Shifting focus to the molecule that follows.
Reported Kd ( Cc1cc(C(=O)NOCCO)c(Nc2ccc(I)cc2F)n(C)c1=O ) = > 30 µM (inactive)

###

- TARGET OR SYSTEM: MAP/microtubule affinity-regulating kinase 4 (Homo sapiens, UniProt Q96L34); also: in the data inactive means no Kd found up to 30 µM
- Sequence (Q96L34 whole entry): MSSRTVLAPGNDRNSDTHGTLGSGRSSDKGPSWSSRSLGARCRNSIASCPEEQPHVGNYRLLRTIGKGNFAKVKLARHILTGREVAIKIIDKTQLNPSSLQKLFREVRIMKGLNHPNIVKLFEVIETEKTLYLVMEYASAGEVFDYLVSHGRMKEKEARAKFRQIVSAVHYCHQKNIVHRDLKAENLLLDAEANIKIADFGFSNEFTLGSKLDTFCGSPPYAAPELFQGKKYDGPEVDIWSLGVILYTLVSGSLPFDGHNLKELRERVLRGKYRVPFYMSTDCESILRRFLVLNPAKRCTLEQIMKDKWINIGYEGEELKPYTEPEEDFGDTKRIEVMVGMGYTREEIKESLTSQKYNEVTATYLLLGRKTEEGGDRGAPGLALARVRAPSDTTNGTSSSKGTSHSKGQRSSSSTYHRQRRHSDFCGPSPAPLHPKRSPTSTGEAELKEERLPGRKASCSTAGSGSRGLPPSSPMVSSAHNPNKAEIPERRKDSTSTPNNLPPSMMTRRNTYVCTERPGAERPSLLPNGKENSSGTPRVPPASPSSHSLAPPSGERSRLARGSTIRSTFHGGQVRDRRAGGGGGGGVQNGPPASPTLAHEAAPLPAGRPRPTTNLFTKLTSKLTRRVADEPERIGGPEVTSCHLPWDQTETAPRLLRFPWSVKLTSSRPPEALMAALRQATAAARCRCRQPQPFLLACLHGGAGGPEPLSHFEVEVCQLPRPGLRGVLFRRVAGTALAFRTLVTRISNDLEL
Calls of active or inactive are those of the source.
METRIC NAME: Kd

Consider the reported Kd for these compounds:
- COMPOUND: "O=C1NC(=O)[C@@H](c2cn3c4c(cccc24)CCC3)[C@@H]1c1c[nH]c2ccccc12 [TIVANTINIB]"
  TARGET OR SYSTEM: "MAP/microtubule affinity-regulating kinase 4 (Homo sapiens, UniProt Q96L34)"
  Kd: "> 30 µM (inactive)"
- COMPOUND: "Nc1ncnc2c1c(-c1cccc(OCc3ccccc3)c1)cn2[C@H]1C[C@@H](CN2CCC2)C1 [AEW-541]"
  TARGET OR SYSTEM: "MAP/microtubule affinity-regulating kinase 4 (Homo sapiens, UniProt Q96L34)"
  Kd: "> 30 µM (inactive)"
- COMPOUND: "CO[C@H]1C[C@@H]2CC[C@@H](C)[C@@](O)(O2)C(=O)C(=O)N2CCCC[C@H]2C(=O)O[C@H]([C@H](C)C[C@@H]2CC[C@@H](O)[C@H](OC)C2)CC(=O)[C@H](C)/C=C(\\C)[C@@H](O)[C@@H](OC)C(=O)[C@H](C)C[C@H](C)/C=C/C=C/C=C/1C [SIROLIMUS]"
  TARGET OR SYSTEM: "MAP/microtubule affinity-regulating kinase 4 (Homo sapiens, UniProt Q96L34)"
  Kd: "> 30 µM (inactive)"
- COMPOUND: "CNC(=O)c1cc(Oc2ccc(NC(=O)Nc3cc(C(C)(C)C)nn3-c3ccc4ncccc4c3)c(F)c2)ccn1 [REBASTINIB]"
  TARGET OR SYSTEM: "MAP/microtubule affinity-regulating kinase 4 (Homo sapiens, UniProt Q96L34)"
  Kd: "> 30 µM (inactive)"
- COMPOUND: "Cc1nc(Nc2n[nH]c3c2CN(C(=O)N[C@H](CN(C)C)c2ccccc2)C3(C)C)c2sccc2n1 [PF-03758309]"
  TARGET OR SYSTEM: "MAP/microtubule affinity-regulating kinase 4 (Homo sapiens, UniProt Q96L34)"
  Kd: "0.029 µM (active)"

Shifting focus to the compound that follows.
Known value: MAP/microtubule affinity-regulating kinase 4 (Homo sapiens, UniProt Q96L34) Kd of the compound CNC(=O)c1cccc2cc(Oc3ccnc4cc(OCC5(N)CC5)c(OC)cc34)ccc12 [LUCITANIB] equals > 30 µM (inactive)

###

- TARGET OR SYSTEM: Uncharacterized protein FLJ45252 (Homo sapiens, UniProt Q6ZSR9); also: in the data inactive means no Kd found up to 30 µM
- Sequence (Q6ZSR9 whole entry): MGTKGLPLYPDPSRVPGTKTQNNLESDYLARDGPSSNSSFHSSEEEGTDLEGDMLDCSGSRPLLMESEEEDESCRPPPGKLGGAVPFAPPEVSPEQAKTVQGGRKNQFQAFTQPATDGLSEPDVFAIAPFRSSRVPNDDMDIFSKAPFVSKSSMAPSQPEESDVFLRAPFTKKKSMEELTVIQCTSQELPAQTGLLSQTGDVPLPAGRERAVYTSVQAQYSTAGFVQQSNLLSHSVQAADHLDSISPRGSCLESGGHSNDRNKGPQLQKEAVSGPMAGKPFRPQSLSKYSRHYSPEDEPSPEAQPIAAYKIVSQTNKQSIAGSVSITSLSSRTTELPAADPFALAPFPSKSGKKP
- ASSAY CONTEXT: read-out: Kd apparent; k-562, colo 205, sk-n-be(2) and mv-4-11; also: in the data inactive means no Kd found up to 30 µM
The source made the active and inactive calls.
Write down the outcome that applies. Available outcomes: active, inactive

Completed entries (count: 2):
- SMILES STRING: "O=C(Nc1c[nH]nc1-c1nc2cc(CN3CCOCC3)ccc2[nH]1)NC1CC1"
  ANSWER LABEL: "active"
- SMILES STRING: "CO[C@H]1C[C@@H]2CC[C@@H](C)[C@@](O)(O2)C(=O)C(=O)N2CCCC[C@H]2C(=O)O[C@H]([C@H](C)C[C@@H]2CC[C@@H](O)[C@H](OC)C2)CC(=O)[C@H](C)/C=C(\\C)[C@@H](O)[C@@H](OC)C(=O)[C@H](C)C[C@H](C)/C=C/C=C/C=C/1C"
  ANSWER LABEL: "inactive"

**Q:** Which outcome was entered for the molecule CCNC(=O)C#Cc1ccc2c(c1)NC(=O)/C2=C(\Nc1ccc(CN(C)C)cc1)c1ccccc1 in this test?
**A:** inactive

###

- TARGET OR SYSTEM: Succinate--CoA ligase [ADP-forming] subunit beta, mitochondrial (Homo sapiens, UniProt Q9P2R7); also: in the data inactive means no Kd found up to 30 µM
- Sequence (Q9P2R7 whole entry): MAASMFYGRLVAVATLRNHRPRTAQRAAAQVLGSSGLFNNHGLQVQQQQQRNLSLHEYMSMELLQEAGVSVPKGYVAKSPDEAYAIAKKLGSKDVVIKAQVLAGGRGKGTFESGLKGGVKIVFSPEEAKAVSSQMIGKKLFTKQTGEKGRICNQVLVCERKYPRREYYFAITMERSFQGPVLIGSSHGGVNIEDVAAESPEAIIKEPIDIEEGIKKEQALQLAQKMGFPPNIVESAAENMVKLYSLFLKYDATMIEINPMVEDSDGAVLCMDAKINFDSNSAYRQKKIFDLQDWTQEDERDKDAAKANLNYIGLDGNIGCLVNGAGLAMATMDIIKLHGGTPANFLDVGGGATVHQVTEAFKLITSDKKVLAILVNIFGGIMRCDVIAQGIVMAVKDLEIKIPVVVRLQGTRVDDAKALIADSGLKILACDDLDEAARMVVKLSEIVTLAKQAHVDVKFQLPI
Active and inactive are the calls of the source.
Measured Kd, listed per entry.

- COMPOUND: "Cn1cc(C2=C(c3cn(C4CCN(Cc5ccccn5)CC4)c4ccccc34)C(=O)NC2=O)c2ccccc21 [ENZASTAURIN]"
  Kd: "> 30 µM (inactive)"

Shifting focus to the compound that follows.
Reported Kd ( N#CC[C@H](C1CCCC1)n1cc(-c2ncnc3[nH]ccc23)cn1 [RUXOLITINIB] ) = > 30 µM (inactive)

###

Here's what we have: Kd numbers for Serine/threonine-protein kinase A-Raf (Homo sapiens, UniProt P10398).
Calls of active or inactive are those of the source.

Consider the reported Kd for these compounds:
- COMPOUND: "COc1ncc(-c2ccc3nccc(-c4ccnnc4)c3c2)cc1NS(=O)(=O)c1ccc(F)cc1F [OMIPALISIB]"
  TARGET OR SYSTEM: "Serine/threonine-protein kinase A-Raf (Homo sapiens, UniProt P10398)"
  Kd: "> 30 µM (inactive)"
- COMPOUND: "O=c1[nH]ccc2cc(OC3CCNCC3)ccc12 [SAR-407899 FREE BASE]"
  TARGET OR SYSTEM: "Serine/threonine-protein kinase A-Raf (Homo sapiens, UniProt P10398)"
  Kd: "> 30 µM (inactive)"

Reported Kd ( CC(=O)c1cnc2ccc(-c3cc(Cl)c(O)c(Cl)c3)nc2c1N[C@H]1CC[C@H](CN(C)C)CC1 ) = > 30 µM (inactive)

Reported Kd ( NC1(c2ccc(-c3nc4ccn5c(=O)[nH]nc5c4cc3-c3ccccc3)cc2)CCC1 [MK-2206] ) = > 30 µM (inactive)

Reported Kd ( O=C(NOCCO)c1cc(CN2OCCCC2=O)c(F)c(F)c1Nc1ccc(I)cc1F [RO-4987655] ) = > 30 µM (inactive)

Reported Kd ( C[C@@H](NC(=O)c1ncnc(N)c1Cl)c1ncc(C(=O)Nc2cc(C(F)(F)F)c(Cl)cn2)s1 [TOVORAFENIB] ) = > 30 µM (inactive)

Reported Kd ( CO[C@H]1C[C@@H]2CC[C@@H](C)[C@@](O)(O2)C(=O)C(=O)N2CCCC[C@H]2C(=O)O[C@H]([C@H](C)C[C@@H]2CC[C@@H](OP(C)(C)=O)[C@H](OC)C2)CC(=O)[C@H](C)/C=C(\C)[C@@H](O)[C@@H](OC)C(=O)[C@H](C)C[C@H](C)/C=C/C=C/C=C/1C [RIDAFOROLIMUS] ) = > 30 µM (inactive)

Reported Kd ( Cc1nc(Nc2n[nH]c3c2CN(C(=O)N[C@H](CN(C)C)c2ccccc2)C3(C)C)c2sccc2n1 [PF-03758309] ) = > 30 µM (inactive)

###

- TARGET OR SYSTEM: Tyrosine-protein kinase HCK (Homo sapiens); also: in the data inactive means no Kd found up to 30 µM
- Sequence (P08631 whole entry): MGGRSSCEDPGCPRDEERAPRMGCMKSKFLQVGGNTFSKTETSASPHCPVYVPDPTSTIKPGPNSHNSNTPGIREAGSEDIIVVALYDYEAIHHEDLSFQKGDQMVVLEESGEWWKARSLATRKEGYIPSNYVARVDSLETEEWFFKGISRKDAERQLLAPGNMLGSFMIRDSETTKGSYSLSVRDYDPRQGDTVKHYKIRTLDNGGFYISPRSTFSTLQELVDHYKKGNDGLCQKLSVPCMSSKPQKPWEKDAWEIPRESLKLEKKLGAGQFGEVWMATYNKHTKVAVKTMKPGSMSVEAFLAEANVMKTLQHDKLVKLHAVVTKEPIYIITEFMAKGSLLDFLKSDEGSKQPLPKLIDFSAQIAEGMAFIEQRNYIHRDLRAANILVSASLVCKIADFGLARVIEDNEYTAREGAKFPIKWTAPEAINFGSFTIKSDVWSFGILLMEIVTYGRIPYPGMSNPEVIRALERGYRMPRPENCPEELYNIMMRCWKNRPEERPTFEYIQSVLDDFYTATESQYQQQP
Counter-ions that a name gives are not always drawn. Active and inactive are the calls of the source.
METRIC NAME: Kd

Consider the reported Kd for these compounds:
- COMPOUND: "Cc1cc(Nc2ncc(Cl)c(Nc3ccccc3S(=O)(=O)C(C)C)n2)c(OC(C)C)cc1C1CCNCC1 [CERITINIB]"
  TARGET OR SYSTEM: "Tyrosine-protein kinase HCK (Homo sapiens)"
  RESULT: "> 30 µM (inactive)"
- COMPOUND: "CO[C@H]1C[C@@H]2CC[C@@H](C)[C@@](O)(O2)C(=O)C(=O)N2CCCC[C@H]2C(=O)O[C@H]([C@H](C)C[C@@H]2CC[C@@H](O)[C@H](OC)C2)CC(=O)[C@H](C)/C=C(\\C)[C@@H](O)[C@@H](OC)C(=O)[C@H](C)C[C@H](C)/C=C/C=C/C=C/1C [SIROLIMUS]"
  TARGET OR SYSTEM: "Tyrosine-protein kinase HCK (Homo sapiens)"
  RESULT: "> 30 µM (inactive)"
- COMPOUND: "COc1cc2ncnc(Oc3cccc(NC(=O)Nc4cc(C(C)(C)C(F)(F)F)on4)c3)c2cc1OC [CEP-32496]"
  TARGET OR SYSTEM: "Tyrosine-protein kinase HCK (Homo sapiens)"
  RESULT: "> 30 µM (inactive)"

Known value: Tyrosine-protein kinase HCK (Homo sapiens) Kd of the compound CC(C)(C)c1nc(-c2cccc(NS(=O)(=O)c3c(F)cccc3F)c2F)c(-c2ccnc(N)n2)s1 [DABRAFENIB] equals 1.65 µM

Known value: Tyrosine-protein kinase HCK (Homo sapiens) Kd of the compound Cc1nc(Nc2n[nH]c3c2CN(C(=O)N[C@H](CN(C)C)c2ccccc2)C3(C)C)c2sccc2n1 [PF-03758309] equals > 30 µM (inactive)

Known value: Tyrosine-protein kinase HCK (Homo sapiens) Kd of the compound Cc1cc(Nc2ncnc3ccc(NC4=NC(C)(C)CO4)cc23)ccc1Oc1ccn2ncnc2c1 [TUCATINIB] equals > 30 µM (inactive)

Known value: Tyrosine-protein kinase HCK (Homo sapiens) Kd of the compound CCS(=O)(=O)c1cccc(-c2cc(C(=O)NC3CCN(C)CC3)c(C)c3[nH]c4ncc(C)cc4c23)c1 [TAK-901] equals 0.143 µM (active)

Known value: Tyrosine-protein kinase HCK (Homo sapiens) Kd of the compound CO[C@H]1C[C@@H]2CC[C@@H](C)[C@@](O)(O2)C(=O)C(=O)N2CCCC[C@H]2C(=O)O[C@H]([C@H](C)C[C@@H]2CC[C@@H](OP(C)(C)=O)[C@H](OC)C2)CC(=O)[C@H](C)/C=C(\C)[C@@H](O)[C@@H](OC)C(=O)[C@H](C)C[C@H](C)/C=C/C=C/C=C/1C [RIDAFOROLIMUS] equals > 30 µM (inactive)

Known value: Tyrosine-protein kinase HCK (Homo sapiens) Kd of the compound FC(F)(F)c1ccc(/C=C/c2nc(COc3ccc(CCCCn4ccnn4)cc3)co2)cc1 [MUBRITINIB] equals > 30 µM (inactive)

Known value: Tyrosine-protein kinase HCK (Homo sapiens) Kd of the compound CCS(=O)(=O)N1CCN(c2ccc(Nc3ncc(C(N)=O)c(NC4CC4)n3)cc2)CC1 [Cerdulatinib Hydrochloride] equals > 30 µM (inactive)

Known value: Tyrosine-protein kinase HCK (Homo sapiens) Kd of the compound CCOc1cc2ncc(C#N)c(Nc3ccc(F)c(Cl)c3)c2cc1NC(=O)/C=C/CN(C)C [PELITINIB] equals 1.18 µM (active)

Known value: Tyrosine-protein kinase HCK (Homo sapiens) Kd of the compound CNC(=O)c1nn(C)c2c1C(C)(C)Cc1cnc(Nc3ccc(N4CCN(C)CC4)cc3)nc1-2 [MILCICLIB] equals 1.32 µM (active)

Known value: Tyrosine-protein kinase HCK (Homo sapiens) Kd of the compound C#Cc1cccc(Nc2ncnc3cc(OC)c(OCCCCCCC(=O)NO)cc23)c1 [CUDC-101] equals > 30 µM (inactive)
